# system tested: xanthine oxidase (Homo sapiens, UniProt P47989)
# Sequence (P47989 whole entry, species assumed): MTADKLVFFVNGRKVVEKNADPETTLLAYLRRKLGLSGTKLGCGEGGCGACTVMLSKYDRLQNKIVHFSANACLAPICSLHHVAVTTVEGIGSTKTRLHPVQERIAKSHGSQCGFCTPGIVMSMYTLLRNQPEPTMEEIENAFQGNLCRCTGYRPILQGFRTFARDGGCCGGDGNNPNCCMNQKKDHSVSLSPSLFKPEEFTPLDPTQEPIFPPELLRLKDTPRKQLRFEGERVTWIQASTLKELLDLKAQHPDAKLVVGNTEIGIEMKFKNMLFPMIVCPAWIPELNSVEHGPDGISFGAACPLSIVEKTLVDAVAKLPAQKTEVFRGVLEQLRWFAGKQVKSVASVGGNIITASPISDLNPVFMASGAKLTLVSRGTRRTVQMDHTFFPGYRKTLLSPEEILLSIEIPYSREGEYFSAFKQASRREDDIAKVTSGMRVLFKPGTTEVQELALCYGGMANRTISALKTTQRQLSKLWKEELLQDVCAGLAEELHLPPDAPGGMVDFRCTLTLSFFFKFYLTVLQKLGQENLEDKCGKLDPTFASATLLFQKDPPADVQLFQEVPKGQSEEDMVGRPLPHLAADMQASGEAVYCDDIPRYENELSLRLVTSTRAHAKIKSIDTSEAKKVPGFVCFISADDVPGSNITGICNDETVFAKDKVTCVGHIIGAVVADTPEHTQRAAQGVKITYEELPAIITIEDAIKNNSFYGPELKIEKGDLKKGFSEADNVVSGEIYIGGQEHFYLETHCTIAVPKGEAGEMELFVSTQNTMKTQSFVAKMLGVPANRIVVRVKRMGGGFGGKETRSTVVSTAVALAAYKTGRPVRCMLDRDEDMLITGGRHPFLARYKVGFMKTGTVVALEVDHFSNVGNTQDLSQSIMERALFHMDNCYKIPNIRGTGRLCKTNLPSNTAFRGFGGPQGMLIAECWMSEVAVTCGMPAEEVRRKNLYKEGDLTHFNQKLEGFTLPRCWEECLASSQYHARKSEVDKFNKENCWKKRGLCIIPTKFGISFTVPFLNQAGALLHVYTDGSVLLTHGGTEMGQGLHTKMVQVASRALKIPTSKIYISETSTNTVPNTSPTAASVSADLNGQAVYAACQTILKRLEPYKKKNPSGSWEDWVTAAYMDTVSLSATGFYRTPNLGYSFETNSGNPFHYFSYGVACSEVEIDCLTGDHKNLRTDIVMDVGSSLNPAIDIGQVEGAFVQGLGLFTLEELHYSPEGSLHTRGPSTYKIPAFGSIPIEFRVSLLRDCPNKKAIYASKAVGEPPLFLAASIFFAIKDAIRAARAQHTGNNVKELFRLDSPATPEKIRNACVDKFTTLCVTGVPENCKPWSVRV
# test description: Xanthine oxidase inhibitory activity, 96 well plate, kinetic reading at 295 nm
# Format: biochemical
# condition: compound concentration 0.1 μM
metric name: PERCENT XANTHINE OXIDASE INHIBITION (%)

a = O=C(OCc1cccnc1)c1ccc(-c2nnn[nH]2)cc1
b = O=C(Nc1cccc(F)c1)c1ccc(-c2nnn[nH]2)cc1
Query: When the recorded PERCENT XANTHINE OXIDASE INHIBITION values are compared, which is smaller: that of a or that of b ? // output: label of the selected item
Response: b

A = O=C(OCCc1cccs1)c1ccc(-c2nnn[nH]2)cc1
B = COc1ccc(NC(=O)c2ccc(-c3nnn[nH]3)cc2)cc1
C = CCC#CCOC(=O)c1ccc(-c2nnn[nH]2)cc1
D = O=C(OC1CCCCC1)c1ccc(-c2nnn[nH]2)cc1
Query: Hey, quick one: sort these by PERCENT XANTHINE OXIDASE INHIBITION, low to high? Response field: labels, in requested order.
Response: D, C, B, A
(D: 18%, C: 35%, B: 58%, A: 97%)

1 = O=C(OCC(F)(F)C(F)F)c1ccc(-c2nnn[nH]2)cc1
2 = CCc1ccc(NC(=O)c2ccc(-c3nnn[nH]3)cc2)cc1
3 = O=C(Nc1ccc(-c2nnn[nH]2)cc1)c1ccccc1
4 = C=C(C)C1CC=C(COC(=O)c2ccc(-c3nnn[nH]3)cc2)CC1 (stereo not shown)
Query: Hey, quick one: sort these by PERCENT XANTHINE OXIDASE INHIBITION, low to high? Response field: labels, in requested order.
Response: 4, 3, 2, 1

----------
# system tested: xanthine oxidase (Homo sapiens)
# test description: Xanthine oxidase inhibitory activity, 96 well plate, kinetic reading at 295 nm
# Format: biochemical
# condition: compound concentration 1 μM
metric name: PERCENT XANTHINE OXIDASE INHIBITION (%)

smiles	PERCENT XANTHINE OXIDASE INHIBITION (%)
c1ccc(COc2ccc(-c3nnn[nH]3)cc2)cc1	35

1 = O=C(OCCN1CCOCC1)c1ccc(-c2nnn[nH]2)cc1
2 = COc1cccc(NC(=O)c2ccc(-c3nnn[nH]3)cc2)c1
Query: I'd appreciate it if you could identify which of 1 and 2 has the greater PERCENT XANTHINE OXIDASE INHIBITION. // output: label of the selected item
Response: 2

----------
# system tested: UniProt:P47989
# test description: Xanthine oxidase inhibitory activity, 96 well plate, kinetic reading at 295 nm
# Assay type: biochemical
# condition: compound concentration 0.03 μM
metric name: PERCENT XANTHINE OXIDASE INHIBITION (%)

These recorded examples may help you get a feel for the data.
smiles	result units	PERCENT XANTHINE OXIDASE INHIBITION
O=C(NCC1CCCCC1)c1ccc(-c2nnn[nH]2)cc1	%	8
O=C(NC12CC3CC(CC(C3)C1)C2)c1ccc(-c2nnn[nH]2)cc1	%	15
O=C(Nc1ccc(Cl)c(Cl)c1)c1ccc(-c2nnn[nH]2)cc1	%	34

1 = O=C(OC1CCCCC1)c1ccc(-c2nnn[nH]2)cc1
2 = CC(=O)c1cccc(NC(=O)c2ccc(-c3nnn[nH]3)cc2)c1
Query: I'd appreciate it if you could identify which of 1 and 2 has the greater PERCENT XANTHINE OXIDASE INHIBITION. // output: label of the selected item
Response: 1

A = O=C(Nc1cccc(I)c1)c1ccc(-c2nnn[nH]2)cc1
B = O=C(Nc1ccc(F)cc1)c1ccc(-c2nnn[nH]2)cc1
Query: When the recorded PERCENT XANTHINE OXIDASE INHIBITION values are compared, which is smaller: that of A or that of B ? // output: label of the selected item
Response: A

----------
# system tested: xanthine oxidase (Homo sapiens, UniProt P47989)
# test description: Xanthine oxidase inhibitory activity, 96 well plate, kinetic reading at 295 nm
# Format: biochemical
# condition: compound concentration 100 μM
metric name: PERCENT XANTHINE OXIDASE INHIBITION (%)

These recorded examples may help you get a feel for the data.
smiles	metric name	test result
O=C(OCc1cccc(Cl)c1)c1ccc(-c2nnn[nH]2)cc1	PERCENT XANTHINE OXIDASE INHIBITION	100
CCCCOC(=O)c1ccc(-c2nnn[nH]2)cc1	PERCENT XANTHINE OXIDASE INHIBITION	95
Clc1ccc(-c2nnn[nH]2)cc1	PERCENT XANTHINE OXIDASE INHIBITION	69
Nc1ccc(-c2nnn[nH]2)cc1	PERCENT XANTHINE OXIDASE INHIBITION	30

P = COc1ccc(-c2nnn[nH]2)c2ccccc12
Q = FC(F)(F)Oc1ccc(-c2nnn[nH]2)cc1
R = CC(=O)c1ccc(-c2nnn[nH]2)cc1
Query: Hey, quick one: sort these by PERCENT XANTHINE OXIDASE INHIBITION, largest value first please. Response field: labels, in requested order.
Response: R, Q, P
(R: 92%, Q: 55%, P: 27%)

----------
# system tested: xanthine oxidase (Homo sapiens)
# test description: Xanthine oxidase inhibitory activity, 96 well plate, kinetic reading at 295 nm
# Type: biochemical
# condition: compound concentration 0.1 μM
metric name: PERCENT XANTHINE OXIDASE INHIBITION (%)

compound	PERCENT XANTHINE OXIDASE INHIBITION / %
N#Cc1cc(-c2nnn[nH]2)ccc1C(=O)Nc1ccncc1 [JG]	61
O=C(OCC(F)(F)F)c1ccc(-c2nnn[nH]2)cc1 [GJ]	59
CC(C)c1ccc(NC(=O)c2ccc(-c3nnn[nH]3)cc2)cc1 [Compound IP]	52
CCc1cccc(NC(=O)c2ccc(-c3nnn[nH]3)cc2)c1 [IE]	38
O=C(Nc1ccc(Cl)cc1Cl)c1ccc(-c2nnn[nH]2)cc1 [IY]	47
CC(C)Cc1ccc(NC(=O)c2ccc(-c3nnn[nH]3)cc2)cc1 [Compound IG]	59
O=C(O)c1cccc(NC(=O)c2ccc(-c3nnn[nH]3)cc2)c1 [IB]	64
O=C(Nc1ccc(F)cc1F)c1ccc(-c2nnn[nH]2)cc1 [IZ]	52
O=C(NC12CC3CC(CC(C3)C1)C2)c1ccc(-c2nnn[nH]2)cc1 [HT]	23

----------
# system tested: xanthine oxidase (Homo sapiens, UniProt P47989)
# test description: Xanthine oxidase inhibitory activity, 96 well plate, kinetic reading at 295 nm
# Format: biochemical
# condition: compound concentration 0.03 μM
Here the recorded PERCENT XANTHINE OXIDASE INHIBITION is given for each entry.
Answer format: numeric, % implied, no suffix.

These recorded examples may help you get a feel for the data.
compound	result units	test result
O=C(OCC12CC3CC(CC(C3)C1)C2)c1ccc(-c2nnn[nH]2)cc1 [GI]	%	75
O=C(Nc1ccc(Cl)cc1Cl)c1ccc(-c2nnn[nH]2)cc1 [IY]	%	26
CCCCc1ccc(NC(=O)c2ccc(-c3nnn[nH]3)cc2)cc1 [IH]	%	33

Attention now shifts to the item below.
Query: Reported PERCENT XANTHINE OXIDASE INHIBITION for O=C(Nc1ccccc1)c1ccc(-c2nn[nH]n2)cc1 [Compound IC] : what is it?
Response: 60
